# Test system: SW480
# experiment.description: drug sensitivity score (DSS, integrated dose-response area); higher = more sensitive (stronger viability reduction); extreme values may be limits of the assay
# run.parameters: shRNA: SND1 shRNA1 (SND1 silenced)
A collection of molecules and their measured drug sensitivity score
API: value field is a number in DSS; no unit string.

// worked examples, drug sensitivity score included
C[C@]12CC[C@@H]3c4ccc(O)cc4C[C@@H](CCCCCCCCC[S+]([O-])CCCC(F)(F)C(F)(F)F)[C@H]3[C@@H]1CC[C@@H]2O (stereo not given in full) | 0
CNC(=O)c1ccc(N2C(=S)N(c3cnc(C#N)c(C(F)(F)F)c3)C(=O)C23CCC3)cc1F | 0.7
NC(=O)c1ccc(I)c([N+](=O)[O-])c1 | 0.4
O=C(Nc1cccc(Nc2ncc(Br)c(NCCc3cnc[nH]3)n2)c1)N1CCCC1 | 6.7
Cc1cnc(NC(=O)Nc2cc(Br)c(C)cc2OC[C@@H]2CNCCO2)cn1 | 1.8

**Q:** Which measured drug sensitivity score value corresponds to "O=NN(CCCl)C(=O)NCCCl" ?
**A:** 0

**Q:** What about "NC(=S)N/N=C/c1ncccc1N" ?
**A:** 2.8

====

# Test system: SW480
# experiment.description: drug sensitivity score (DSS, integrated dose-response area); higher = more sensitive (stronger viability reduction); extreme values may be limits of the assay
# run.parameters: shRNA: SND1 shRNA1 (SND1 silenced)
Classify as follows. Reported drug sensitivity score greater than or equal to 5 DSS: true (1). Reported drug sensitivity score below: false (0).

Below are worked cases with known answers.
Cc1nc(Nc2n[nH]c3c2CN(C(=O)N[C@H](CN(C)C)c2ccccc2)C3(C)C)c2sccc2n1 | true (1)
COc1cc(Nc2c(C#N)cnc3cc(OCCCN4CCN(C)CC4)c(OC)cc23)c(Cl)cc1Cl | true (1)
CC(C)(C)c1nc(-c2cccc(NS(=O)(=O)c3c(F)cccc3F)c2F)c(-c2ccnc(N)n2)s1 | false (0)
COCC1(CO)C(=O)C2CCN1CC2 (centres undefined) | false (0)
O=P1(NCCCl)OCCCN1CCCl (centres undefined) [Ifosfamide] | false (0)
O=C(O)c1ccc(O)c2ncccc12 | false (0)
C[C@@]1(C(=O)Nc2ccc(F)nc2)CCCN1c1nc(Nc2cc(C3CC3)n[nH]2)c2cccn2n1 | true (1)

Please examine the following record next.
**Q:** # bool: drug sensitivity score of "Cc1cnc(Nc2ccc(OCCN3CCCC3)cc2)nc1Nc1cccc(S(=O)(=O)NC(C)(C)C)c1" >= 5 DSS
**A:** true (1)

====

# Test system: SW480
# experiment.description: drug sensitivity score (DSS, integrated dose-response area); higher = more sensitive (stronger viability reduction); extreme values may be limits of the assay
# run.parameters: shRNA: SND1 shRNA1 (SND1 silenced)
Grouping rule (drug sensitivity score): Low: < 3 DSS; Mid: ≥ 3 DSS and < 8 DSS; High: ≥ 8 DSS

Examples with answers:
CCC1=C[C@@H]2CN(C1)Cc1c([nH]c3ccccc13)[C@@](C(=O)OC)(c1cc3c(cc1OC)N(C)[C@H]1[C@@](O)(C(=O)OC)[C@H](OC(C)=O)[C@]4(CC)C=CCN5CC[C@]31[C@@H]54)C2 [Vinorelbine] | High
CN(C)C/C=C/C(=O)Nc1cc2c(Nc3ccc(F)c(Cl)c3)ncnc2cc1O[C@H]1CCOC1 [Afatinib] | Low
COc1cccc(OCCCN)c1-c1cc(Nc2cnc(C#N)cn2)n[nH]1 [Prexasertib] | High
CCN(CC)CCNC(=O)c1c(C)[nH]c(/C=C2\C(=O)Nc3ccc(F)cc32)c1C [Sunitinib] | Low
Cn1cnc2c(F)c(Nc3ccc(Br)cc3Cl)c(C(=O)NOCCO)cc21 [Selumetinib] | High

**Q:** Each compound maps to one class by drug sensitivity score. Which class for COc1cc2ncnc(Nc3ccc(F)c(Cl)c3)c2cc1OCCCN1CCOCC1 [Gefitinib] ?
**A:** Mid
